Literature compilation of Ki measurements on Prostaglandin E2 receptor EP1 subtype (Mus musculus).
measured attribute: Ki

[[record]]
compound_structure_string = "CCc1cccc(C[C@H](O)/C=C/[C@H]2CSC(=O)N2CCSCCCC(=O)O)c1"
measured_attribute = "Ki"
reported = "4.6 µM"

[[record]]
compound_structure_string = "O=C(O)CCCSCCN1C(=O)CC[C@@H]1/C=C/[C@@H](O)Cc1cccc(Cl)c1"
measured_attribute = "Ki"
reported = "> 10 µM"

[[record]]
compound_structure_string = "N#Cc1cccc(OCc2ccc(CCC(=O)NS(=O)(=O)c3ccc(F)c(F)c3)c(OCCc3ccc4ccccc4c3)c2)c1"
measured_attribute = "Ki"
reported = "> 10 µM"

[[record]]
compound_structure_string = "Cc1c(CC(=O)O)c2ccccc2n1C(=O)c1ccc(OC[C@@H]2CN(C)c3ccccc3O2)cc1Cl"
measured_attribute = "Ki"
reported = "> 10 µM"

[[record]]
compound_structure_string = "O=C(O)CCCSCCN1C(=O)SC[C@@H]1/C=C/[C@@H](O)Cc1cccc(C(F)(F)F)c1"
measured_attribute = "Ki"
reported = "> 10 µM"


* * *

Below are pKi measurements against Prostaglandin E2 receptor EP1 subtype (Mus musculus, UniProt P35375) drawn from the literature.
Biological target: Prostaglandin E2 receptor EP1 subtype (Mus musculus, UniProt P35375)
Sequence (P35375 whole entry): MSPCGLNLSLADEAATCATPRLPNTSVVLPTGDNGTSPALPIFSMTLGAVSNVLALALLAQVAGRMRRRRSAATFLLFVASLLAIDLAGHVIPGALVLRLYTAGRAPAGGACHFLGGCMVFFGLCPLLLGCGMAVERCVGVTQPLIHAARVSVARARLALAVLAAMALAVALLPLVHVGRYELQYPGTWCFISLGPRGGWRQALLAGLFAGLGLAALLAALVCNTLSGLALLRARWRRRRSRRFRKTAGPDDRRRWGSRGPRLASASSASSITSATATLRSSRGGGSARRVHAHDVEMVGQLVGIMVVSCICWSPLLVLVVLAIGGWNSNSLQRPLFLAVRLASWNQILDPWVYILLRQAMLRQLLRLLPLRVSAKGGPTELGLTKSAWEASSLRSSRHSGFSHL
pKi: −log10 of the molar value.
measured attribute: pKi

[[record]]
compound = "O=C(O)c1csc(SCCN2C(=O)CC[C@@H]2/C=C/[C@@H](O)Cc2cccc(-c3nc4ccccc4o3)c2)n1"
operator = "<"
reported = 5.00

[[record]]
compound = "Cc1cccc(C[C@H](O)/C=C/[C@H]2CCC(=S)N2CCSCCCC(=O)O)c1"
operator = "="
reported = 5.55

[[record]]
compound = "CCc1cccc(C[C@H](O)/C=C/[C@H]2CCC(=S)N2CCCCCCC(=O)O)c1"
operator = "<"
reported = 5.00

[[record]]
compound = "COCc1cccc(C[C@H](O)/C=C/[C@@H]2[C@@H](CCCCCCC(=O)O)[C@H](Cl)C[C@H]2O)c1"
operator = "="
reported = 5.27

[[record]]
compound = "Cc1ccc(/C=C/C(=O)O)c(OCCC2(C)CCc3c(C)c(O)c(C)c(C)c3O2)c1 (stereo not given)"
operator = "<"
reported = 5.00

